# pEC50 values compiled below
target: ΔF508-CFTR (Homo sapiens, UniProt P13569, DEL508-508); construct: host or cells: CFBE41o-, doxycycline-inducible; assay: CFTR cell surface levels using HRP-tagged ΔF508-CFTR expressing CFBE cells, in the presence of a co-corrector; assay type: cell-based; conditions: HRP-tagged ΔF508-CFTR expressing CFBE cells, in the presence of 3 μM co-corrector; read-out: EC50
Sequence (P13569 with tags, fused parts or gaps DEL508-508): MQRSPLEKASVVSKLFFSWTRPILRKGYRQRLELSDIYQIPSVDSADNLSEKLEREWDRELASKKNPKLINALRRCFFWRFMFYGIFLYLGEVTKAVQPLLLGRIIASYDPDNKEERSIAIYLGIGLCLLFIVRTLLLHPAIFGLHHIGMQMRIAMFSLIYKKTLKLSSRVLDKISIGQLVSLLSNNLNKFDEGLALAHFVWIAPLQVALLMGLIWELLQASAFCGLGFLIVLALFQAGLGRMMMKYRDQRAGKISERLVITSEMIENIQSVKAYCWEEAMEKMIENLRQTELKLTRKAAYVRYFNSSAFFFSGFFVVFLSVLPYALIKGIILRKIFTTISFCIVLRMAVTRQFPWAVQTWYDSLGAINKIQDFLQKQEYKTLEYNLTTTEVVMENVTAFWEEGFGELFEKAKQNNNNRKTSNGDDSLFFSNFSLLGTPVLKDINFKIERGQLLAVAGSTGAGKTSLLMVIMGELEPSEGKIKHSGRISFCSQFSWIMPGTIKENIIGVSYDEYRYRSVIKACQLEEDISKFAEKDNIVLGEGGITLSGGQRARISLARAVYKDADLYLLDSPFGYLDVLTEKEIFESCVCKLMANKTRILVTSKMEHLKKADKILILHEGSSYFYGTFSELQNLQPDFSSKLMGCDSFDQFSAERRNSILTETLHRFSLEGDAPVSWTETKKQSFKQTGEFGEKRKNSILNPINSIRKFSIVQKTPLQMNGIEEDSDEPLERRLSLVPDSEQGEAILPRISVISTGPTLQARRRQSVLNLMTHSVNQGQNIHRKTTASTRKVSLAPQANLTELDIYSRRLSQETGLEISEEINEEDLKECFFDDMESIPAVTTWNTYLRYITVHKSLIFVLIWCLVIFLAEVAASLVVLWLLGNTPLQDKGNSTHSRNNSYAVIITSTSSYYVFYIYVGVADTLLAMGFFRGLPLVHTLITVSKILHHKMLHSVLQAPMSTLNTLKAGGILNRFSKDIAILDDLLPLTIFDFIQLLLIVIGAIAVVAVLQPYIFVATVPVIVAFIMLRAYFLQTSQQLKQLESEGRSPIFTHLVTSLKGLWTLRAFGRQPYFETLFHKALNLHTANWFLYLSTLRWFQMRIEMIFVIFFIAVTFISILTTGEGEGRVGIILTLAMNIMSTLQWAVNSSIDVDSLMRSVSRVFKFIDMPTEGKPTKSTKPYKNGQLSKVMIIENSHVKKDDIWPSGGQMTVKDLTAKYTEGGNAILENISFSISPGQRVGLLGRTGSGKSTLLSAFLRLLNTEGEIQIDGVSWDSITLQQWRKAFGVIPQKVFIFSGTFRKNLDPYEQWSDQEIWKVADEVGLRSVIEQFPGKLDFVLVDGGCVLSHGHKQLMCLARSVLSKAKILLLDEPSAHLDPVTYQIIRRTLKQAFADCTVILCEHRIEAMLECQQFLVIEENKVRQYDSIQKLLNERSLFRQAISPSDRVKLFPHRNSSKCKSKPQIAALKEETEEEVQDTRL
Scale: pEC50 equals -log10([C]), with [C] in mol/L.

compound	val
Cc1nn(-c2cccc(N3CCOCC3)c2)c2nc(C(=O)O)cc(-c3ccc(N4CCOCC4)cc3)c12 [compound 32]	5.86

Then there is this compound:
Task item: Supply reported pEC50 belonging to this compound: O=C(O)c1cc(OC(CN2CCOCC2)CN2CCOCC2)c2c(C3CCC3)nn(-c3ccccc3)c2n1 [compound 641]
Reply: 5.64

---

target: ΔF508-CFTR (Homo sapiens, UniProt P13569, DEL508-508); construct: host or cells: CFBE41o-, doxycycline-inducible; assay: CFTR cell surface levels using HRP-tagged ΔF508-CFTR expressing CFBE cells, intrinsic corrector capacity; format: cell-based; details: HRP-tagged ΔF508-CFTR CFBE41o- cells, compounds alone (intrinsic corrector capacity), 20 hours at 33° C.; positive control 3 μM corrector
Note to self: use Fulfilled only for % Activation readings below 200%; a reading exactly at 200% still gets Not fulfilled.

molecule	classAssignment
Cc1nn(-c2ccccc2)c2nc(C(=O)O)cc(N3CCCCC3)c12	Fulfilled

Task item: Hello, is % Activation of the following molecule strictly smaller than 200%? O=C(O)c1cc(-c2ccc(N3CCOCC3)cc2)c2c(C3CCC3)nn(-c3ccc(F)c(F)c3)c2n1
Reply: Not fulfilled

Task item: Find out if reported % Activation for COc1cc(N2CCOCC2)ccc1-c1cc(C(=O)O)nc2c1c(C)nn2-c1ccccc1 is less than 200%
Reply: Fulfilled

Task item: Just wondering, is % Activation of Cc1nn(-c2ccccc2)c2nc(C(=O)O)cc(O[C@H]3C[C@H](N4CCCCC4)C3)c12 below 200%?
Reply: Fulfilled

---

// reported EC50 for each item listed
biological target: ΔF508-CFTR (Homo sapiens, UniProt P13569, DEL508-508); construct: host or cells: CFBE41o-, doxycycline-inducible; test: CFTR cell surface levels using HRP-tagged ΔF508-CFTR expressing CFBE cells, intrinsic corrector capacity; assay type: cell-based; details: HRP-tagged ΔF508-CFTR expressing CFBE cells; intrinsic corrector capacity (no co-corrector); 33° C., 20 hours; read-out: EC50
I only need the number, in µM, no unit after it.

Take a look at these entries with their results.
compound	EC50 [µM]
O=C(O)c1cc(N2CCOC(CN3CCCCC3)C2)c2c(C3CCC3)nn(-c3ccccc3)c2n1 (stereo not shown)	0.838
COCCN(C)c1cc(C(=O)O)nc2c1c(C1CCC1)nn2-c1ccccc1	1.62

Let's switch to this compound now.
Task item: Identify EC50 associated with the compound O=C(O)c1cc(N2CCCCC2)c2c(C3CCC3)nn(-c3ccccc3)c2n1
Reply: 0.932

---

target: ΔF508-CFTR (Homo sapiens, UniProt P13569, DEL508-508); construct: host or cells: CFBE41o-, doxycycline-inducible; assay: CFTR cell surface levels using HRP-tagged ΔF508-CFTR expressing CFBE cells, intrinsic corrector capacity; assay type: cell-based; details: HRP-tagged ΔF508-CFTR expressing CFBE cells; intrinsic corrector capacity (no co-corrector); 33° C., 20 hours
observable: % Activation (%)
Quick note: give the figure in %, leave out the unit.

Some solved entries appear below for comparison.
molecule	unitAbbreviation	% Activation
O=C(O)c1cc(N2CCC(CN3CCC(F)(F)C3)CC2)c2c(C3CCC3)nn(-c3ccccc3)c2n1	%	283.5
O=C(O)c1cc(OCCN2CCC3(CC2)OCCO3)c2c(C3CCC3)nn(-c3ccccc3)c2n1	%	106.8
O=C(O)c1cc(OCC2CCCCC2)c2c(C3CCC3)nn(-c3ccccc3)c2n1	%	125.25

For the next question, use this compound.
Task item: State its % Activation for this compound: CC(C)c1nn(-c2ccc(F)cc2)c2nc(C(=O)O)cc(N3CCCN(C(C)C)CC3)c12
Reply: 47.22

---

Biological target: ΔF508-CFTR (Homo sapiens, UniProt P13569, DEL508-508)
Construct: host or cells: CFBE41o-, doxycycline-inducible
Assay: CFTR cell surface levels using HRP-tagged ΔF508-CFTR expressing CFBE cells, in the presence of a co-corrector
Format: cell-based
Settings: HRP-tagged ΔF508-CFTR expressing CFBE cells, in the presence of 3 μM co-corrector
Source text: Measuring CFTR Cell Surface Levels Using HRP-Tagged AF508-CFTR Expressing CFBE Cells The HRP-tagged AF508-CFTR cell assay measures the expression of CFTR-ΔF508 at the plasma membrane. […] When HRP-tagged AF508-CFTR is present at the plasma membrane, the HRP enzyme activity can be measured. The amount of CFTR-ΔF508 that can be rescued to the plasma membrane is correlated with the amount of functional enzyme that can be measured. […]
observable: % Activation (%)
# number only, unit % dropped from output

Task item: Using known records, supply % Activation for Cc1nn(-c2ccccc2)c2nc(C(=O)O)cc(OCC3CCC(F)(F)C3)c12 (centres unmarked)
Reply: 268.1

Task item: # return recorded % Activation for input CC(C)c1nn(C2CCCCC2)c2nc(C(=O)O)cc(-c3cnc(N(C)C)nc3)c12
Reply: 349.9

Task item: Note % Activation for the compound shown: Cc1cccc(-n2nc(C(C)C)c3c(N4CCC(S(C)(=O)=O)C4)cc(C(=O)O)nc32)c1 (centres unmarked)
Reply: 319.6

Task item: Supply reported % Activation belonging to this compound: O=C(O)c1cc(N2CCC3(CC2)CC(F)(F)CO3)c2c(C3CCC3)nn(-c3ccccc3)c2n1
Reply: 275.35

Task item: Retrieve % Activation measured for CC(C)c1nn(C2CCCCC2)c2nc(C(=O)O)cc(-c3ccc(N(C)C)nc3)c12 and print it.
Reply: 379.57

Task item: Look up and report measured % Activation for this entry: O=C(O)c1cc(N2CCN(CC3CC3)CC2)c2c(C3CCC3)nn(-c3ccccc3)c2n1
Reply: 298.55

Task item: Input COCCOCC1(F)CCN(c2cc(C(=O)O)nc3c2c(C2CCC2)nn3-c2ccccc2)CC1 , output reported % Activation.
Reply: 319.8

Task item: Name the recorded % Activation of the compound listed here: CC(C)c1nn([C@@H]2CCC[C@@H](O)C2)c2nc(C(=O)O)cc(-c3ccc(N4CCOCC4)cc3)c12 (racemic)
Reply: 233.9

---

Form field: pEC50 (one value per entry).
biological target: ΔF508-CFTR (Homo sapiens, UniProt P13569, DEL508-508); construct: host or cells: CFBE41o-, doxycycline-inducible; assay: CFTR cell surface levels using HRP-tagged ΔF508-CFTR expressing CFBE cells, in the presence of a co-corrector; assay type: cell-based; settings: HRP-tagged ΔF508-CFTR expressing CFBE cells, in the presence of 3 μM co-corrector; read-out: EC50
For clarity, pEC50 is expressed as the negative log10 of concentration in mol/L.

Solved cases (2 shown):
molecule	pEC50
CC1(c2nn(-c3ccccc3)c3nc(C(=O)O)cc(-c4ccc(N5CCOCC5)cc4)c23)CC1	6.41
CC(C)CN1C[C@@H]2CN(c3cc(C(=O)O)nc4c3c(C3CCC3)nn4-c3ccccc3)C[C@@H]2C1	6.03

Task item: Let me know recorded pEC50 for CC(C)c1nn(C2CCCCC2)c2nc(C(=O)O)cc(-c3ccc(N4CCOC(C)(C)C4)nc3)c12 , thanks.
Reply: 6.36

Task item: Dear colleague, please send me the reported pEC50 for CC(C)c1nn(-c2cccc(F)c2)c2nc(C(=O)O)cc(-c3ccc(N4CCC(C#N)CC4)nc3)c12 when you can.
Reply: 6.58

Task item: Dear colleague, please send me the reported pEC50 for CC(C)c1nn(-c2ccc(F)cc2)c2nc(C(=O)O)cc(N3CCN(C4CCN(C)CC4)CC3)c12 when you can.
Reply: 5.78

Task item: Please report pEC50 for the following compound: O=C(O)c1cc(N2CCC(CN3CCCCC3)CC2)c2c(C3CCC3)nn(-c3ccccc3)c2n1
Reply: 6.62

Task item: Indicate its recorded pEC50; the compound in question is CCN(CC)CCCC1CCN(c2cc(C(=O)O)nc3c2c(C2CCC2)nn3-c2ccccc2)CC1
Reply: 7.02

---

biological target: ΔF508-CFTR (Homo sapiens, UniProt P13569, DEL508-508); construct: host or cells: CFBE41o-, doxycycline-inducible; assay: CFTR cell surface levels using HRP-tagged ΔF508-CFTR expressing CFBE cells, in the presence of a co-corrector; assay type: cell-based; details: HRP-tagged ΔF508-CFTR expressing CFBE cells, in the presence of 3 μM co-corrector
Reported % Activation values for a set of compounds
Give your result in % as a bare value.

Task item: Query % Activation for CC(C)c1nn(C2CCN(CC#N)CC2)c2nc(C(=O)O)cc(-c3ccc(N4CCOCC4)cc3)c12 [compound 95]
Reply: 145.4

Task item: Give the value of % Activation reported for the following: CCCCN1CCCN(c2cc(C(=O)O)nc3c2c(C(C)C)nn3-c2ccc(F)cc2)CC1 [compound 768]
Reply: 256.5

Task item: # return recorded % Activation for entry Cc1nn(-c2ccccc2)c2nc(C(=O)O)cc(-c3ccc(NC4COC4)cc3)c12 [compound 112]
Reply: 378.1

Task item: Using the record for Cc1nn(-c2ccccc2)c2nc(C(=O)O)cc(N3CCC(O)CC3)c12 [compound 137] , state its measured % Activation.
Reply: 158.05
